# SUBJECT OF TEST: F317L Bcr-abl (Homo sapiens, UniProt P00519, F317L)
# Construct: the other entry of the earlier key: BCR (P11274, Breakpoint cluster region protein)
# ASSAY PROTOCOL: Antiproliferative effect on Ba/F3 cells expressing mutant Bcr-abl F317L
READOUT: IC50 (µM)
API: value field is a number in µM; no unit string.

Per the records, this molecule ( NC(=O)c1ccc(-c2cc(-c3cc(Nc4ccc(OC(F)(F)F)cc4)ncn3)ccn2)cc1 [Compound 97] ) has IC50 equal to 4.45

* * *

# SUBJECT OF TEST: M351T Bcr-abl (Homo sapiens, UniProt P00519, M351T)
# Construct: the other entry of the earlier key: BCR (P11274, Breakpoint cluster region protein)
# ASSAY PROTOCOL: Antiproliferative effect on Ba/F3 cells expressing mutant Bcr-abl M351T
READOUT: IC50 (nM)
API: value field is a number in nM; no unit string.

Per the records, this molecule ( `NC(=O)c1ccc(-c2cc(-c3cc(Nc4ccc(OC(F)(F)F)cc4)ncn3)ccn2)cc1` ) has IC50 equal to 970

Values compiled from patent US20050014753A1.
